All figures here come from patent US20200339690A1.

Target: human LILRB2 expressed on cells (human, UniProt Q8N423 22-597)
Sequence (Q8N423 other isoform, or with tags, fused parts or gaps limits assumed): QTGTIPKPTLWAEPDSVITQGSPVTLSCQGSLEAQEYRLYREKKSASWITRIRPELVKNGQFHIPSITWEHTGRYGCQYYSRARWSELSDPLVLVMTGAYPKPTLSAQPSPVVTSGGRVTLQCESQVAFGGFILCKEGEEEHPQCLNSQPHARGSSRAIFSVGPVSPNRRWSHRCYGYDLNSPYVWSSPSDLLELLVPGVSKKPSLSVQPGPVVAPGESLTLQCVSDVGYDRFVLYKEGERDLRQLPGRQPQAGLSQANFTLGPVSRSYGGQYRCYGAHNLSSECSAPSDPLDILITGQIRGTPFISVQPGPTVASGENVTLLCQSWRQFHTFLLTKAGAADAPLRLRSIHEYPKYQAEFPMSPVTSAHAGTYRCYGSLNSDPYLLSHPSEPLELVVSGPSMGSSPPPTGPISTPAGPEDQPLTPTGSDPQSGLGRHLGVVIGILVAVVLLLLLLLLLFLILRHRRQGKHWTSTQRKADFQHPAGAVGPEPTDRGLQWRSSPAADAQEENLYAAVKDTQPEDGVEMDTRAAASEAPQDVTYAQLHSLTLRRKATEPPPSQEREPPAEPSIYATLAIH
Experiment: cell-based or functional assay
Readout name: IC50, CCL2 production by LPS-stimulated HMDMs (nM)
Give a bare numeral; the unit nM is implied.

Query :: Fill in the blank: the reported IC50, CCL2 production by LPS-stimulated HMDMs of J-19.h2 (antibody, human IgG4 S228P, kappa, V domains shown, Humanized, human IgG4 backbone) VH: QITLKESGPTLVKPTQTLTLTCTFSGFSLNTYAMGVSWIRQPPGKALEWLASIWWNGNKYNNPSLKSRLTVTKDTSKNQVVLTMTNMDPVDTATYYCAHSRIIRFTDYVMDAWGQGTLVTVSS VL: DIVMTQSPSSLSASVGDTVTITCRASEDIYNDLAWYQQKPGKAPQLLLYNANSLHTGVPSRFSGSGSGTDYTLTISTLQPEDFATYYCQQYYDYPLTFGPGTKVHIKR is ____.
Result :: 0.011

Query :: What do we get for J-19.h4 (antibody, human IgG4 S228P, kappa, V domains shown, Humanized, human IgG4 backbone) VH: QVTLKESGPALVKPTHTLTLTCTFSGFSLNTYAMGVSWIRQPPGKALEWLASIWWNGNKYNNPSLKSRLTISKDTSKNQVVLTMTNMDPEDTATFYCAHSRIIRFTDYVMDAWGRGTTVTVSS VL: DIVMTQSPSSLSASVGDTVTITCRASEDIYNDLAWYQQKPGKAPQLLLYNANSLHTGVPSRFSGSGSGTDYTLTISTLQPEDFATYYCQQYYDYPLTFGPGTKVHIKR ?
Result :: 0.01

Query :: What do we get for J-19.h3 (antibody, human IgG4 S228P, kappa, V domains shown, Humanized, human IgG4 backbone) VH: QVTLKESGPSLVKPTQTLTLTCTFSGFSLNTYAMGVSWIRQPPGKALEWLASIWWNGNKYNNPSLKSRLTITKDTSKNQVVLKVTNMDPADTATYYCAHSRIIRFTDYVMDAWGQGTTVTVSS VL: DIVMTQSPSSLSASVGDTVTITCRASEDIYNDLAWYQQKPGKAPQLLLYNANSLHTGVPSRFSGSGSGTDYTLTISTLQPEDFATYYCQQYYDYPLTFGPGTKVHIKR ?
Result :: 5.9

Query :: What do we get for J-19.h1 (antibody, human IgG4 S228P, kappa, V domains shown, Humanized, human IgG4 backbone) VH: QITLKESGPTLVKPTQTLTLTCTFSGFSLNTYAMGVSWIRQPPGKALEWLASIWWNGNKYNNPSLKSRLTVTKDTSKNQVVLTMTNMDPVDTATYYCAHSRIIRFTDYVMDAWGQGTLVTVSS VL: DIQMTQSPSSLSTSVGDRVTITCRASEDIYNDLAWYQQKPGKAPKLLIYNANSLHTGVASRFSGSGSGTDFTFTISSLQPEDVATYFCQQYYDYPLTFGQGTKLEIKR ?
Result :: 0.005
